These data points were gathered from patent US9006450B2.

MEASUREMENT TARGET: human ACC2 (Homo sapiens)
Construct: made in house; host or cells: insect cells (baculoviral expression system)
Sequence (O00763 129-2458 limits assumed): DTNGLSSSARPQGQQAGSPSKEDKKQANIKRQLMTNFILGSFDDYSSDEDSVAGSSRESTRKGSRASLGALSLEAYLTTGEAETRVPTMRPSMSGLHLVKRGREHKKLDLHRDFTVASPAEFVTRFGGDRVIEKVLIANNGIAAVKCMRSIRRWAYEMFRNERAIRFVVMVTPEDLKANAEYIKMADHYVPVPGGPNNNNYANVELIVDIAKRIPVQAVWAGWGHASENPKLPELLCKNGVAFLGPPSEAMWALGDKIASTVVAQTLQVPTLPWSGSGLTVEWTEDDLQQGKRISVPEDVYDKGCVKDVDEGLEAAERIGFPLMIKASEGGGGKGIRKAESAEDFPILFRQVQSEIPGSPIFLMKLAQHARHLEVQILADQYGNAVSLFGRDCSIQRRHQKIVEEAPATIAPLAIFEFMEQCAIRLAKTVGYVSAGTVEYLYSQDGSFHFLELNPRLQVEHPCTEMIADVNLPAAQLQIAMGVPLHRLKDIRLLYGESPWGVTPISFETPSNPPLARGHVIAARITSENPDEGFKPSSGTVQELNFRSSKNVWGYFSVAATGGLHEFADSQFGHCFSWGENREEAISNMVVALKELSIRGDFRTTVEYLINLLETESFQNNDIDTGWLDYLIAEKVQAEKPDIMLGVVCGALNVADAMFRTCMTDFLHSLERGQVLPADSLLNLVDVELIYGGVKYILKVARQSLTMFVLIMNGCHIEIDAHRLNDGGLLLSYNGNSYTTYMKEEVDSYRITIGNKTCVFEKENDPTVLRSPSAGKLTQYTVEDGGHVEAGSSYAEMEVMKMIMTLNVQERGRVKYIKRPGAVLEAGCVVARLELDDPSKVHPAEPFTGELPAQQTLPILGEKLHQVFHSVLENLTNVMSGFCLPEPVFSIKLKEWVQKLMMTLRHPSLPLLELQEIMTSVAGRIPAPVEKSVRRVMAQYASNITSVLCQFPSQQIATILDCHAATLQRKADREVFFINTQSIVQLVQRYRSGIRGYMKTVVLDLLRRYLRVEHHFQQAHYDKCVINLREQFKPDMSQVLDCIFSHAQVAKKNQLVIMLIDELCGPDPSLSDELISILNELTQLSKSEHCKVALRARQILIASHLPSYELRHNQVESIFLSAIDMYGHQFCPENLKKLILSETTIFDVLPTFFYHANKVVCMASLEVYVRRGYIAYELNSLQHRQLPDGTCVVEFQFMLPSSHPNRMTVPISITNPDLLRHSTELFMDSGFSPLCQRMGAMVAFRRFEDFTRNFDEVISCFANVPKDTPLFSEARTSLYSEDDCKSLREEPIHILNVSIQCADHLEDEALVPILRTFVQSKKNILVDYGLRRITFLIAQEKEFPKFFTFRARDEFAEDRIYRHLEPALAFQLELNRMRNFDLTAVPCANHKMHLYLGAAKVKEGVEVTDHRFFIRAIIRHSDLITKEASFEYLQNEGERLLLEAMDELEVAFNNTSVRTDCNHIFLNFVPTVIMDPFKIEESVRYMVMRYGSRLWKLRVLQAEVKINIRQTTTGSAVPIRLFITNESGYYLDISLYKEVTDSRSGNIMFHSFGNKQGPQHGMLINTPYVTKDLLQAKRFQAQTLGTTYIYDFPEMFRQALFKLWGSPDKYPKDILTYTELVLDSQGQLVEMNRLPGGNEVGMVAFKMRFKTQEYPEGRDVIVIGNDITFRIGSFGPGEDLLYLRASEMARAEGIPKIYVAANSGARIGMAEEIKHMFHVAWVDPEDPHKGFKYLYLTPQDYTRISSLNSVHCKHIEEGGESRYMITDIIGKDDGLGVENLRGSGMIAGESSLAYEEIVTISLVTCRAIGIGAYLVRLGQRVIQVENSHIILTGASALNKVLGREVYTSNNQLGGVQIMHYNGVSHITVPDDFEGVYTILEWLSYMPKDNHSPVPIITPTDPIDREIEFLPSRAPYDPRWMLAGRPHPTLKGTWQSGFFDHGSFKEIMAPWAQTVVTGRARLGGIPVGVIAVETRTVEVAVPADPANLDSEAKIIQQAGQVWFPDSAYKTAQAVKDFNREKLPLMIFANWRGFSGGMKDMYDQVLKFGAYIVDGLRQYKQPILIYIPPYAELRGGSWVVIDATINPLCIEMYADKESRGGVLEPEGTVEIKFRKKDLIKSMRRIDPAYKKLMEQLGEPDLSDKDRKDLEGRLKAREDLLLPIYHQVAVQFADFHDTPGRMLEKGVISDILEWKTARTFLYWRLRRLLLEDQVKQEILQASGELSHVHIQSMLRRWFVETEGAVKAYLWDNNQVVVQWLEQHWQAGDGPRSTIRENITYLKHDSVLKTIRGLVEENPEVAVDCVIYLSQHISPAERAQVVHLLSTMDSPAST
TEST NAME: ACC2 assay, spectrophotometric 384 well assay (NADH-linked, coupled lactate dehydrogenase/pyruvate kinase)
Assay type: biochemical
STUDY CONDITIONS: ACC2 assay, hACC2 construct lacking 128 N-terminal amino acids, 25° C., 340 nm; read-out: IC50
QUANTITY MEASURED: IC50 (µM)

Consider the following illustrative entries.
| COMPOUND | MEASUREMENT TARGET | QUANTITY MEASURED | ENDPOINT RESULT |
| --- | --- | --- | --- |
| C=CCCOc1cccc(N2CCC(c3ccc([C@H](C)NC(C)=O)cc3)CC2)c1 | human ACC2 (Homo sapiens) | IC50 | 0.53 |
| CC(=O)N[C@@H](C)c1ccc(C2CCN(c3ccnc(-c4ccc(C#N)s4)n3)CC2)cc1 | human ACC2 (Homo sapiens) | IC50 | 0.94 |
| CC(=O)N[C@@H](C)c1ccc(C2CCN(c3ccc(OC4CCC4)c(F)c3)CC2)cc1 | human ACC2 (Homo sapiens) | IC50 | 0.11 |
| C=CCOc1cccc(N2CCC(c3ccc([C@H](C)NC(C)=O)cc3)CC2)c1 | human ACC2 (Homo sapiens) | IC50 | 0.26 |
| CCOc1ccc(N2CCC(c3ccc([C@H](C)NC(=O)Cc4ccccc4)cc3)CC2)cc1 | human ACC2 (Homo sapiens) | IC50 | 1.6 |
| CC(=O)N[C@@H](C)c1ccc(C2CCN(c3ccc(OCC4CCO4)c(F)c3)CC2)cc1 (stereo partly shown) | human ACC2 (Homo sapiens) | IC50 | 1.6 |
| CCC(=O)N[C@@H](C)c1ccc(C2CCN(c3ccc4c(c3)OCCO4)CC2)cc1 | human ACC2 (Homo sapiens) | IC50 | 1.1 |
| CC(=O)N[C@@H](C)c1ccc(C2CCN(c3ccc(NCC4CC4)cc3)CC2)cc1 | human ACC2 (Homo sapiens) | IC50 | 1.3 |
| CC(=O)N[C@@H](C)c1ccc(C2CCN(c3ncc(-c4cscc4C)cn3)CC2)cc1 | human ACC2 (Homo sapiens) | IC50 | 0.32 |
| CC(=O)N[C@@H](C)c1ccc(C2CCN(c3ccnc(N4Cc5ccccc5C4)n3)CC2)cc1 | human ACC2 (Homo sapiens) | IC50 | 1.6 |

(A) COCc1nc2cc(N3CCC(c4ccc([C@H](C)NC(C)=O)cc4)CC3)ccc2o1
(B) CC(=O)N[C@@H](C)c1ccc(C2CCN(c3ccc4nc(C)sc4c3)CC2)cc1
(C) CC(C)Oc1cc(N2CCC(c3ccc([C@H](C)NC(=O)C4CC4)cc3)CC2)ncn1
(D) CC(=O)N[C@@H](C)c1ccc(C2CCN(c3cccc(OCCOC4CC4)c3)CC2)cc1
Your job: order these 4 records by IC50, ascending. Show the ranking through the labels, in the order asked for.
D, B, C, A
(D: 0.27 µM, B: 0.42 µM, C: 0.6 µM, A: 1.5 µM)

###

MEASUREMENT TARGET: human ACC2 (Homo sapiens)
Construct: made in house; host or cells: insect cells (baculoviral expression system)
TEST NAME: ACC2 assay, spectrophotometric 384 well assay (NADH-linked, coupled lactate dehydrogenase/pyruvate kinase)
Assay type: biochemical
STUDY CONDITIONS: ACC2 assay, hACC2 construct lacking 128 N-terminal amino acids, 25° C., 340 nm; read-out: IC50
pIC50: −log10 of the molar value.
QUANTITY MEASURED: pIC50

(I) Cc1cc(OC2CC2)ccc1N1CCC(c2ccc([C@H](C)NC(=O)N(C)C)cc2)CC1 [Example 1.57]
(II) CC(C)COc1ccc(N2CCC(c3ccc([C@H](C)NC(=O)N(C)C)cc3)CC2)nc1 [Example 1.126]
Lower value of pIC50 belongs to which: I or II ? Select an item and report its label.
II
(II: 6.64, I: 7.00)

(A) CC(=O)N[C@@H](C)c1ccc(C2CCN(c3ncc(-c4ccc5nccnc5c4)cn3)CC2)cc1 [Example 10.73]
(B) CC(=O)N[C@@H](C)c1ccc(C2CCN(c3ccnc(OC4Cc5ccccc5C4)c3)CC2)cc1 [Example 19.30]
Which of the two items, A and B , has the greater recorded pIC50? Select an item and report its label.
A
